- SUBJECT_OF_TEST: KLK5 (Homo sapiens)
- Construct: purchased Novoprotein
- Sequence (Q9Y337 23-293): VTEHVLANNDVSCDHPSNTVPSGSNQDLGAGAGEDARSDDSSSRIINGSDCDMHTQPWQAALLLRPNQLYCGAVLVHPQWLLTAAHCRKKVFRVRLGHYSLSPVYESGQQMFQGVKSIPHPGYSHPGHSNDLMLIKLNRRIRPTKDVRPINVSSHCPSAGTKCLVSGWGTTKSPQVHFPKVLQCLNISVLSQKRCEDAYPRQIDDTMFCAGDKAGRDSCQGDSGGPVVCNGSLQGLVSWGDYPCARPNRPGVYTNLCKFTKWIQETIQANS
- PROCEDURE_DETAILS: biochemical
- Assay type: binding
- CONDITION_INFO: ITC, 25°C (Table S2, unit not given)
Positions of bridges follow the written chain, without caps; N, C: chain ends. Residues, ends and D or L forms follow the SMILES beside them.
Please go through the items and note down their Ka.
Lab note: record the figure alone, no unit after it.

Ask: For CC[C@H](C)[C@@H]1NC(=O)[C@H](CO)NC(=O)[C@H](CCCNC(=N)N)NC(=O)[C@H]([C@@H](C)O)NC(=O)[C@@H]2CSSC[C@H](NC(=O)[C@H](Cc3c[nH]cn3)NC(=O)[C@@H]3CCCN3C(=O)[C@@H]3CCCN3C1=O)C(=O)N[C@@H](Cc1c[nH]c3ccccc13)C(=O)N1CCC[C@H]1C(=O)N[C@@H](CC(=O)O)C(=O)NCC(=O)N[C@@H](CCCNC(=N)N)C(=O)N2 [Analogue 6] (cyclo(CTRSIPPHCWPDGR); disulfide 1-9) , what is its reported Ka?
Reply: 5.0E7

Ask: For CC[C@H](C)[C@@H]1NC(=O)[C@H](CO)NC(=O)[C@H](CCCCN)NC(=O)[C@H]([C@@H](C)O)NC(=O)[C@@H]2CSSC[C@H](NC(=O)[C@H](Cc3c[nH]cn3)NC(=O)[C@@H]3CCCN3C(=O)[C@@H]3CCCN3C1=O)C(=O)N[C@@H](Cc1c[nH]c3ccccc13)C(=O)N1CCC[C@H]1C(=O)N[C@@H](CC(=O)O)C(=O)NCC(=O)N[C@@H](CCCNC(=N)N)C(=O)N2 [Analogue 2] (cyclo(CTKSIPPHCWPDGR); disulfide 1-9) , what is its reported Ka?
Reply: 1.0E7

Ask: For CC[C@H](C)[C@@H]1NC(=O)[C@H](CO)NC(=O)[C@H](CCCCN)NC(=O)[C@H]([C@@H](C)O)NC(=O)[C@@H]2CSSC[C@H](NC(=O)[C@H](Cc3c[nH]cn3)NC(=O)[C@@H]3CCCN3C(=O)[C@@H]3CCCN3C1=O)C(=O)N[C@@H](Cc1ccccc1)C(=O)N1CCC[C@H]1C(=O)N[C@@H](CC(=O)O)C(=O)NCC(=O)N[C@@H](CCCNC(=N)N)C(=O)N2 [Analogue I10H] (cyclo(CFPDGRCTKSIPPH); disulfide 1-7) , what is its reported Ka?
Reply: 2.1E6

Ask: For CC[C@H](C)[C@@H]1NC(=O)[C@H](CO)NC(=O)[C@H](CCCNC(=N)N)NC(=O)[C@H]([C@@H](C)O)NC(=O)[C@@H]2CSSC[C@H](NC(=O)[C@H](Cc3c[nH]cn3)NC(=O)[C@@H]3CCCN3C(=O)[C@@H]3CCCN3C1=O)C(=O)N[C@@H](Cc1ccccc1)C(=O)N1CCC[C@H]1C(=O)N[C@@H](CC(=O)O)C(=O)NCC(=O)N[C@@H](CCCNC(=N)N)C(=O)N2 [Analogue 1] (cyclo(CFPDGRCTRSIPPH); disulfide 1-7) , what is its reported Ka?
Reply: 8.7E6
